This listing pairs compounds with measured pIC50.
target: UniProtKB P11362; assay: FGFR Enzymatic Assay (FRET peptide phosphorylation), FGFR1; assay type: biochemical; conditions: wild-type un-phosphorylated protein; pre-incubated for 4 hours; ATP near or below Km
pIC50: −log10 of the molar value.

Past entries and their recorded results:
>  <Compound>
CNC(=O)c1cccc(-c2cnc3cc(-c4cnn(C)c4)c(OC)cn23)c1 [Example 1]

>  <Assay Target>
UniProtKB P11362

>  <Quantity Kind>
pIC50

>  <Result>
≤ 6.40

$$$$
>  <Compound>
CNC(=O)c1cc(F)c(F)c(-c2cnc3cc(-c4cnn(C)c4)c(N[C@H]4CCOC4)nn23)c1 [Example 19]

>  <Assay Target>
UniProtKB P11362

>  <Quantity Kind>
pIC50

>  <Result>
7.00 to 8.00

$$$$

Request: pIC50 for CNC(=O)c1cc(F)c(F)c(-c2cnc3cc(-c4cnn(C5CCN(C(C)=O)CC5)c4)c(O[C@H]4CCOC4)nn23)c1 [Example 74] ?
Result: > 8.00

Request: Returns the measured pIC50 for the input compound. Input: CNC(=O)c1cc(-c2ccc(F)cc2F)cc(-c2cnc3cc(-c4cnn(C)c4)c(OC)nn23)c1 [Example 11]
Result: 7.00 to 8.00

Request: Given the compound CNC(=O)c1cncc(-c2cnc3cc(-c4ccc(NC(=O)OC)cc4)c(O[C@H]4CCOC4)nn23)c1 [Example 67] , what is its reported pIC50?
Result: 6.40 to 7.00

Request: Which value of pIC50 has been reported for CNC(=O)c1cc(CC#N)c(F)c(-c2cnc3cc(-c4cnn(C)c4)c(O[C@H]4CCOC4)nn23)c1 [Example 44] in the records?
Result: 6.40 to 7.00

Request: Suppose we examine the compound CNC(=O)c1cccc(-c2cnc3cc(-c4cnn(C)c4)c(OC4CC(C#N)C4)nn23)c1 (stereo not shown) [Example 56] ; what pIC50 value has been reported?
Result: 6.40 to 7.00

Request: So what's the measured pIC50 for this one? CNC(=O)c1cc(F)c(F)c(-c2cnc3cc(-c4cnn(C)c4)c(OCCOC)nn23)c1 [Example 20]
Result: 7.00 to 8.00

Request: Looking for the measured pIC50 of CNC(=O)c1cc(F)c(F)c(-c2cnc3cc(-c4cnn(C(C)C)c4)c(O[C@H]4CCOC4)nn23)c1 [Example 24] , can you help?
Result: > 8.00

Request: Query (compound): CNC(=O)c1cc(F)c(F)c(-c2cnc3cc(-c4cnn(C)c4)c(O[C@H]4CCNC4=O)nn23)c1 [Example 18] ; field requested: pIC50
Result: 7.00 to 8.00

Request: Give the measured pIC50 of Cn1cc(-c2cc3ncc(-c4ccc5oncc5c4)n3nc2OC2CCOC2)cn1 (stereo not shown) [Example 66] .
Result: 6.40 to 7.00

Request: pIC50 for COc1nn2c(-c3cncc(C)c3)cnc2cc1-c1cnn(C)c1 [Example 3] ?
Result: ≤ 6.40

Request: # pIC50 lookup, item CNC(=O)c1cc(-c2cnc3cc(-c4ccc(N5CCCC5=O)nc4)c(O[C@H]4CCOC4)nn23)c(F)c(C(F)F)c1 [Example 33]
Result: 6.40 to 7.00

Request: Recorded pIC50 of CNC(=O)c1cc(CO)c(F)c(-c2cnc3cc(-c4cnn(C)c4)c(O[C@H]4CCOC4)nn23)c1 [Example 40] , please.
Result: 7.00 to 8.00

Request: Reported pIC50 for CNC(=O)c1ccc(OC)c(-c2cnc3cc(-c4cnn(C)c4)c(OC)nn23)c1 [Example 12] : what is it?
Result: ≤ 6.40

Request: Given the compound Cn1cc(-c2cc3ncc(-c4cccc(-n5cccn5)c4)n3nc2OC2COC2)cn1 [Example 61] , what is its reported pIC50?
Result: 7.00 to 8.00

----------
Assay read-out IC50; system under study: wild-type un-phosphorylated FGFR3 (Homo sapiens).
Sequence (P22607 23-806): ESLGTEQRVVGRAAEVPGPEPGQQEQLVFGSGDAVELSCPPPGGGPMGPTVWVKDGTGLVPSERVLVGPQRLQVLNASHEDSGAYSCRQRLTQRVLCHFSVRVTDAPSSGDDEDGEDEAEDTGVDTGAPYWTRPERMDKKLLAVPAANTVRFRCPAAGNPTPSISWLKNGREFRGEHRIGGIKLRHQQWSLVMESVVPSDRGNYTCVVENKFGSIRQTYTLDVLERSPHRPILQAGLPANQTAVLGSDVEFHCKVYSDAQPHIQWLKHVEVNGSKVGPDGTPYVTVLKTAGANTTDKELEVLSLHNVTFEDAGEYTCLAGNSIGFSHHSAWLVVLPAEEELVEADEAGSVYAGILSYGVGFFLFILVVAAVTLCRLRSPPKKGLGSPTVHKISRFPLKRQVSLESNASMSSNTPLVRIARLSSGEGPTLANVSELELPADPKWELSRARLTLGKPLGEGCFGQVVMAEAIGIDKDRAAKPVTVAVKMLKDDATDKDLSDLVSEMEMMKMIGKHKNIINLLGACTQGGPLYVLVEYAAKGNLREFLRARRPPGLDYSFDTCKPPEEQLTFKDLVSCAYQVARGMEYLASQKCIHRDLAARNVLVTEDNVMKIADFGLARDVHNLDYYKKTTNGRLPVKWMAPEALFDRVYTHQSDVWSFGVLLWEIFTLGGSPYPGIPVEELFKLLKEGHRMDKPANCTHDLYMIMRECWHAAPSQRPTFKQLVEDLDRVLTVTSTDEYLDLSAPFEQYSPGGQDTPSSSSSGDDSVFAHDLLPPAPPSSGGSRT

>  <Compound>
CNC(=O)c1cc(-c2cnc3cc(-c4cnn(C(C)(C)C#N)c4)c(O[C@H]4CCOC4)nn23)c(F)c(C(F)F)c1

>  <Assay Target>
wild-type un-phosphorylated FGFR3 (Homo sapiens)

>  <IC50>
< 10 nM

$$$$
>  <Compound>
CNC(=O)c1cc(-c2cnc3cc(-c4cnn5ccccc45)c(O[C@H]4CCOC4)nn23)c(F)c(C(F)F)c1

>  <Assay Target>
wild-type un-phosphorylated FGFR3 (Homo sapiens)

>  <IC50>
10 to 100 nM

$$$$
>  <Compound>
CNC(=O)c1cc(F)c(F)c(-c2cnc3cc(-c4cnn(C5CCS(=O)(=O)C5)c4)c(O[C@H]4CCOC4)nn23)c1 (stereo partly shown)

>  <Assay Target>
wild-type un-phosphorylated FGFR3 (Homo sapiens)

>  <IC50>
< 10 nM

$$$$
>  <Compound>
Cc1cc(-c2cn(C)nn2)cc(-c2cnc3cc(-c4cnn(C)c4)c(O[C@H]4CCOC4)nn23)c1F

>  <Assay Target>
wild-type un-phosphorylated FGFR3 (Homo sapiens)

>  <IC50>
100 to 400 nM

$$$$

Request: GET /values?readout=IC50&item= CNC(=O)c1cc(F)c(F)c(-c2cnc3cc(-c4cnn(C)c4)c(OCCOC)nn23)c1
Result: < 10 nM

Request: Fill in the blank: the reported IC50 of CNC(=O)c1cc(-c2cnc3cc(-c4ccc(C(C)(C)O)nc4)c(O[C@H]4CCOC4)nn23)c(F)c(C(F)F)c1 is ____.
Result: < 10 nM

Request: Need IC50, item CNC(=O)c1cc(F)c(F)c(-c2cnc3cc(-c4cnn5c4CCC5)c(O[C@H]4CCOC4)nn23)c1
Result: < 10 nM

----------
System: wild-type un-phosphorylated FGFR1 (Homo sapiens) | Read-out: pIC50
Sequence (P11362 22-822): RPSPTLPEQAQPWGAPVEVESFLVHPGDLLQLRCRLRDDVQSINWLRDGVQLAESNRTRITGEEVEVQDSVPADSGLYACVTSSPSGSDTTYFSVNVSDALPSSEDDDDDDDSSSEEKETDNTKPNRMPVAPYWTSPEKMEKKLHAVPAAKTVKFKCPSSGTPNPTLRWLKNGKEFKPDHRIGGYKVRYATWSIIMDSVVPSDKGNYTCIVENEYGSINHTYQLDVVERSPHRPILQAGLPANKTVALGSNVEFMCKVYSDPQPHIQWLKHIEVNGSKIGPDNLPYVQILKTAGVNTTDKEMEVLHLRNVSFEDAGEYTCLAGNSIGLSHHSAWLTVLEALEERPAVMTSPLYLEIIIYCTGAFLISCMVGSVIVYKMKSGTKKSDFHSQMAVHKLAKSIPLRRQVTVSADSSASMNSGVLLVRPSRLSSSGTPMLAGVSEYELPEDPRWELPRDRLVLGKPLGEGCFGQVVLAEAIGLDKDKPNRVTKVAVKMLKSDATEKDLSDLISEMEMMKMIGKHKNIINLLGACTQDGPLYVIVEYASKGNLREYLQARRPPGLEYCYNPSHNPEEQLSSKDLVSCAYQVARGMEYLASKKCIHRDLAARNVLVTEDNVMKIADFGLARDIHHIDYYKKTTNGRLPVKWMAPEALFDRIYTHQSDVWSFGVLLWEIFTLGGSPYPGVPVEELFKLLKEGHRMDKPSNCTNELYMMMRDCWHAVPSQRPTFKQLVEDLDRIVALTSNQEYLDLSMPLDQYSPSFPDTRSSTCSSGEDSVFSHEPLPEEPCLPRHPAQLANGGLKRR
pIC50: −log10 of the molar value.

>  <Compound>
CNC(=O)c1cncc(-c2cnc3cc(-c4cnn(C)c4)c(OC4COC4)nn23)c1 [Example 15]

>  <Assay Target>
wild-type un-phosphorylated FGFR1 (Homo sapiens)

>  <pIC50>
7.00 to 8.00

$$$$
>  <Compound>
CNC(=O)c1cc(-c2cnc3cc(-c4cnn(C)c4)c(O[C@H]4CCOC4)nn23)c(F)c(N(C)C)c1 [Example 37]

>  <Assay Target>
wild-type un-phosphorylated FGFR1 (Homo sapiens)

>  <pIC50>
6.40 to 7.00

$$$$
>  <Compound>
CNC(=O)c1cc(-c2cnc3cc(-c4cnn(Cc5cccnc5)c4)c(O[C@H]4CCOC4)nn23)c(F)c(C(F)F)c1 [Example 29]

>  <Assay Target>
wild-type un-phosphorylated FGFR1 (Homo sapiens)

>  <pIC50>
7.00 to 8.00

$$$$

Attention now turns to another entry.
Request: What is its pIC50 for wild-type un-phosphorylated FGFR1 (Homo sapiens)? Entry: CNC(=O)c1cc(-c2cnc3cc(-c4ccc(N5CCCC5)nc4)c(O[C@H]4CCOC4)nn23)c(F)c(C(F)F)c1 [Example 32]
Result: 6.40 to 7.00

----------
target: UniProt P22607
pIC50: −log10 of the molar value.
Quantity Kind: pIC50

Known pIC50 results, listed for orientation:
>  <Compound>
CNC(=O)c1ccc(OC)c(-c2cnc3cc(-c4cnn(C)c4)c(OC)nn23)c1 [Example 12]

>  <Result>
≤ 6.40

$$$$
>  <Compound>
CNC(=O)c1cc(-c2cnc3cc(-c4cnn([C@H]5CC[C@H](O)CC5)c4)c(O[C@H]4CCOC4)nn23)c(F)c(C(F)F)c1 [Example 34]

>  <Result>
> 8.00

$$$$
>  <Compound>
COc1nn2c(-c3cccc(C(C)(C)O)c3)cnc2cc1-c1cnn(C)c1 [Example 9]

>  <Result>
7.00 to 8.00

$$$$

# context switch: different compound, same pIC50
Request: Return pIC50 measured with UniProt P22607 given this compound: CNC(=O)c1cc(F)c(F)c(-c2cnc3cc(-c4cnn(C(C)C)c4)c(O[C@H]4CCOC4)nn23)c1 [Example 24]
Result: > 8.00

----------
pIC50: −log10 of the molar value.
This document collects pIC50 values reported for wild-type un-phosphorylated FGFR1 (Homo sapiens, UniProt P11362).

Below, each entry is followed by its recorded pIC50 result.
>  <Compound Structure>
CNC(=O)c1cc(F)c(F)c(-c2cnc3cc(-c4cnn(CCN5CCCC5=O)c4)c(O[C@H]4CCOC4)nn23)c1

>  <pIC50>
> 8.00

$$$$
>  <Compound Structure>
CNC(=O)c1cc(-c2cnc3cc(-c4cnn([C@H]5CC[C@H](O)CC5)c4)c(O[C@H]4CCOC4)nn23)c(F)c(C(F)F)c1

>  <pIC50>
> 8.00

$$$$
>  <Compound Structure>
CNC(=O)c1cc(F)c(F)c(-c2cnc3cc(-c4cnn(C5CCN(S(=O)(=O)N(C)C)CC5)c4)c(O[C@H]4CCOC4)nn23)c1

>  <pIC50>
> 8.00

$$$$
>  <Compound Structure>
COc1nn2c(-c3cc(C(=O)NCC(F)(F)F)ccc3F)cnc2cc1-c1cnn(C)c1

>  <pIC50>
7.00 to 8.00

$$$$
>  <Compound Structure>
COc1nn2c(-c3cccc(NC(C)=O)c3)cnc2cc1-c1cnn(C)c1

>  <pIC50>
> 8.00

$$$$
>  <Compound Structure>
Cc1cc(-c2cn(C)nn2)cc(-c2cnc3cc(-c4cnn(C)c4)c(O[C@H]4CCOC4)nn23)c1F

>  <pIC50>
≤ 6.40

$$$$

Below: the item to evaluate.
Request: What does the record list as pIC50 for CNC(=O)c1cc(-c2cnc3cc(-c4cnn(CCN5CCOCC5)c4)c(O[C@H]4CCOC4)nn23)c(F)c(C(F)F)c1 ?
Result: 7.00 to 8.00

Values were extracted from patent US12012409B2.
